FYI, the data here is from ChEMBL document CHEMBL1139851.

# Assay Overview: Solubility in water at pH 6.74
# Type: physicochemical
Experimental Readout: solubility (µg/mL)

[[record]]
mol = "CNCCCOc1cc(F)c(-c2c(Cl)nc3ncnn3c2N[C@@H](C)C(F)(F)F)c(F)c1.Cl"
units_text = "µg/mL"
measured_value = 890


----------
# Tested on: COLO 205
# Assay Overview: Cytotoxicity against COLO205 cells
# Format: cell-based
# Study Conditions: Homo sapiens
IC50 reference
Experimental Readout: IC50 (nM)

[[record]]
mol = "C[C@H](Nc1c(-c2c(F)ccc(OCCCN(C)C)c2F)c(Cl)nc2ncnn12)C(F)(F)F"
measured_value = 785

[[record]]
mol = "C[C@H](Nc1c(-c2c(F)cc(OCCCN(C)C)cc2F)c(Br)nc2ncnn12)C(F)(F)F"
measured_value = 96

[[record]]
mol = "C[C@H](Nc1c(-c2c(F)cc(OCCN3CCOCC3)cc2F)c(Cl)nc2ncnn12)C(F)(F)F"
measured_value = 245

[[record]]
mol = "C[C@H](Nc1c(-c2c(F)cc(CCCCN(C)C)cc2F)c(Cl)nc2ncnn12)C(F)(F)F"
measured_value = 665

[[record]]
mol = "C[C@H](Nc1c(-c2ccc(F)cc2F)c(Cl)nc2ncnn12)C(F)(F)F"
measured_value = 953

[[record]]
mol = "CN(C)CCCOc1cc(F)c(-c2c(Cl)nc3ncnn3c2NCC(F)(F)F)c(F)c1.Cl"
measured_value = 53


----------
# Assay Overview: Metabolic stability in rat liver microsomes
# Type: ADME, Microsome
Experimental Readout: half-life (h)

[[record]]
mol = "CNCCCOc1cc(F)c(-c2c(Cl)nc3ncnn3c2N[C@@H](C)C(F)(F)F)c(F)c1.Cl"
measured_value = 1.47


----------
Ratio IC50 values for the molecules below.
# Tested on: KB
# Assay Overview: Ratio of IC50 for KB8.5 cells to IC50 for KB cells
# Assay type: functional, Homo sapiens
Experimental Readout: Ratio IC50

[[record]]
mol = "CC[C@]1(O)C[C@H]2CN(CCc3c([nH]c4ccccc34)[C@@](C(=O)OC)(c3cc4c(cc3OC)N(C=O)[C@H]3[C@@](O)(C(=O)OC)[C@H](OC(C)=O)[C@]5(CC)C=CCN6CC[C@]43[C@@H]65)C2)C1"
target = "KB"
measured_value = 26

[[record]]
mol = "CNCCCOc1cc(F)c(-c2c(Cl)nc3ncnn3c2N[C@@H](C)C(F)(F)F)c(F)c1.Cl"
target = "KB"
measured_value = 2.9

[[record]]
mol = "C[C@H](Nc1c(-c2c(F)cc(OCCCN(C)C)cc2F)c(Cl)nc2ncnn12)C(F)(F)F.Cl"
target = "KB"
measured_value = 1.8

[[record]]
mol = "C[C@H](Nc1c(-c2c(F)cc(OCCCCO)cc2F)c(Cl)nc2ncnn12)C(F)(F)F"
target = "KB"
measured_value = 1.6

[[record]]
mol = "CN(C)CCCOc1cc(F)c(-c2c(Cl)nc3ncnn3c2NCC(F)(F)F)c(F)c1.Cl"
target = "KB"
measured_value = 2


----------
# Test system: U-87MG ATCC
# Assay Overview: Antitumor activity against U87-MG cells xenografted in iv dosed athymic nu/nu mouse
# Assay type: functional, organism-based
# Study Conditions: Homo sapiens
The source made the active and inactive calls. No cut-off for these calls is given here.
Experimental Readout: Activity

[[record]]
mol = "C[C@H](Nc1c(-c2c(F)cc(OCCCN3CCCC3)cc2F)c(Cl)nc2ncnn12)C(F)(F)F"
measured_value = "Active"

[[record]]
mol = "C[C@H](Nc1c(-c2c(F)cc(OCCCN(C)C)cc2F)c(Cl)nc2ncnn12)C(F)(F)F.Cl"
measured_value = "Active"

[[record]]
mol = "CNCCCOc1cc(F)c(-c2c(Cl)nc3ncnn3c2N[C@@H](C)C(F)(F)F)c(F)c1.Cl"
measured_value = "Active"

[[record]]
mol = "C[C@H](Nc1c(-c2c(F)cc(OCCCN3CCOCC3)cc2F)c(Cl)nc2ncnn12)C(F)(F)F"
measured_value = "Active"

[[record]]
mol = "CN(C)CCCOc1cc(F)c(-c2c(Cl)nc3ncnn3c2NCC(F)(F)F)c(F)c1.Cl"
measured_value = "Active"


----------
# System: COLO 205
# Assay Overview: Cytotoxicity against COLO205 cells
# Type: cell-based
# Study Conditions: Homo sapiens
pIC50: −log10 of the molar value.
Below, each of the compounds is paired with its reported pIC50 value.
Experimental Readout: pIC50

[[record]]
mol = "C[C@H](Nc1c(-c2c(F)cc(SCCCN(C)C)cc2F)c(Cl)nc2ncnn12)C(F)(F)F"
experimental_readout = "pIC50"
measured_value = 6.72

[[record]]
mol = "C[C@H](Nc1c(-c2c(F)cc(OCCCO)cc2F)c(Cl)nc2ncnn12)C(F)(F)F"
experimental_readout = "pIC50"
measured_value = 7.17

[[record]]
mol = "C[C@H](Nc1c(-c2c(F)cc(OCCO)cc2F)c(Cl)nc2ncnn12)C(F)(F)F"
experimental_readout = "pIC50"
measured_value = 6.37

[[record]]
mol = "C[C@H](Nc1c(-c2c(F)cc(F)cc2F)c(Cl)nc2ncnn12)C(F)(F)F"
experimental_readout = "pIC50"
measured_value = 6.57

[[record]]
mol = "CNCCCOc1cc(F)c(-c2c(Cl)nc3ncnn3c2N[C@@H](C)C(F)(F)F)c(F)c1.Cl"
experimental_readout = "pIC50"
measured_value = 7.51

[[record]]
mol = "Fc1cc(F)c(-c2c(Cl)nc3ncnn3c2NCC(F)(F)F)c(F)c1"
experimental_readout = "pIC50"
measured_value = 6.43

[[record]]
mol = "C[C@H](Nc1c(-c2c(F)ccc(OCCCCN(C)C)c2F)c(Cl)nc2ncnn12)C(F)(F)F"
experimental_readout = "pIC50"
measured_value = 6.36

[[record]]
mol = "C[C@H](Nc1c(-c2c(F)cc(NCCCN(C)C)cc2F)c(Cl)nc2ncnn12)C(F)(F)F"
experimental_readout = "pIC50"
measured_value = 6.14

[[record]]
mol = "C[C@H](Nc1c(-c2c(F)ccc(OCCN(C)C)c2F)c(Cl)nc2ncnn12)C(F)(F)F"
experimental_readout = "pIC50"
measured_value = 5.80


----------
# Assay Overview: Volume of distribution in rat
# Assay type: ADME, organism-based
# Study Conditions: in vivo, read-out: Vdss
Experimental Readout: Vd (L/kg)

[[record]]
mol = "CNCCCOc1cc(F)c(-c2c(Cl)nc3ncnn3c2N[C@@H](C)C(F)(F)F)c(F)c1.Cl"
measured_value = 14


----------
# Assay Overview: Antiproliferative activity against KBV1 cells expressing MDR1
# Type: functional, cell-based
# Study Conditions: Homo sapiens, KB-V1
Measured IC50 of individual entries
Experimental Readout: IC50 (µM)

[[record]]
mol = "C[C@H](Nc1c(-c2c(F)cc(OCCCN(C)C)cc2F)c(Cl)nc2ncnn12)C(F)(F)F.Cl"
experimental_readout = "IC50"
measured_value = 0.114

[[record]]
mol = "C[C@H](Nc1c(-c2c(F)cc(OCCCCO)cc2F)c(Cl)nc2ncnn12)C(F)(F)F"
experimental_readout = "IC50"
measured_value = 0.067

[[record]]
mol = "CN(C)CCCOc1cc(F)c(-c2c(Cl)nc3ncnn3c2NCC(F)(F)F)c(F)c1.Cl"
experimental_readout = "IC50"
measured_value = 0.263

[[record]]
mol = "CNCCCOc1cc(F)c(-c2c(Cl)nc3ncnn3c2N[C@@H](C)C(F)(F)F)c(F)c1.Cl"
experimental_readout = "IC50"
measured_value = 0.953


----------
# System: COLO 205
# Assay Overview: Cytotoxicity against COLO205 cells
# Type: cell-based
# Study Conditions: Homo sapiens
pIC50: −log10 of the molar value.
Experimental Readout: pIC50

[[record]]
mol = "C[C@H](Nc1c(-c2c(F)cc(OCCCN3CCOCC3)cc2F)c(Cl)nc2ncnn12)C(F)(F)F"
measured_value = 7.29

[[record]]
mol = "C[C@H](Nc1c(-c2c(F)cc(OCCCCCO)cc2F)c(Cl)nc2ncnn12)C(F)(F)F"
measured_value = 6.67

[[record]]
mol = "C[C@H](Nc1c(-c2c(F)cc(OCCCN(C)C)cc2F)c(Cl)nc2ncnn12)C(F)(F)F.Cl"
measured_value = 7.25

[[record]]
mol = "CCN(C)CCCOc1cc(F)c(-c2c(Cl)nc3ncnn3c2N[C@@H](C)C(F)(F)F)c(F)c1"
measured_value = 7.32

[[record]]
mol = "C[C@H](Nc1c(-c2c(F)ccc(F)c2F)c(Cl)nc2ncnn12)C(F)(F)F"
measured_value = 6.74

[[record]]
mol = "C[C@H](Nc1c(-c2c(F)cc(N(C)CCCN(C)C)cc2F)c(Cl)nc2ncnn12)C(F)(F)F"
measured_value = 5.78

[[record]]
mol = "C[C@H](Nc1c(-c2c(F)cc(F)cc2F)c(Br)nc2ncnn12)C(F)(F)F"
measured_value = 6.63

[[record]]
mol = "CCOCCCOc1cc(F)c(-c2c(Cl)nc3ncnn3c2N[C@@H](C)C(F)(F)F)c(F)c1"
measured_value = 6.57

[[record]]
mol = "C[C@H](Nc1c(-c2c(F)cc(OCCCN)cc2F)c(Cl)nc2ncnn12)C(F)(F)F"
measured_value = 6.34

[[record]]
mol = "C[C@H](Nc1c(-c2c(F)cc(OCCN(C)C)cc2F)c(Cl)nc2ncnn12)C(F)(F)F"
measured_value = 6.24

[[record]]
mol = "C[C@H](Nc1c(-c2c(F)cc(OCCCN3CCC3)cc2F)c(Cl)nc2ncnn12)C(F)(F)F"
measured_value = 6.49

[[record]]
mol = "C[C@H](Nc1c(-c2c(F)cc(OCCCCO)cc2F)c(Cl)nc2ncnn12)C(F)(F)F"
measured_value = 6.82

[[record]]
mol = "C[C@H](Nc1c(-c2c(F)cc(OCCCCN(C)C)cc2F)c(Cl)nc2ncnn12)C(F)(F)F"
measured_value = 6.56

[[record]]
mol = "C[C@H](Nc1c(-c2c(F)cc(OCCCN3CCCC3)cc2F)c(Cl)nc2ncnn12)C(F)(F)F"
measured_value = 7.36

[[record]]
mol = "C[C@H](Nc1c(-c2c(F)cc(OCCCN3CCCCC3)cc2F)c(Cl)nc2ncnn12)C(F)(F)F"
measured_value = 6.95

[[record]]
mol = "CCCCOc1cc(F)c(-c2c(Cl)nc3ncnn3c2N[C@@H](C)C(F)(F)F)c(F)c1"
measured_value = 5.72

[[record]]
mol = "C[C@@H](Nc1c(-c2c(F)cc(F)cc2F)c(Cl)nc2ncnn12)C(F)(F)F"
measured_value = 6.15

[[record]]
mol = "C[C@H](Nc1c(-c2ccc(OCCCN(C)C)cc2F)c(Cl)nc2ncnn12)C(F)(F)F"
measured_value = 6.58

